Just for reference, patent US20090131481A1 is where these values come from.

Hi there, I'd appreciate the recorded inhibition at 50 µg/mL for every entry that follows.
Assayed System: SoxS (Escherichia coli)
Sequence (P0A9E2 whole entry): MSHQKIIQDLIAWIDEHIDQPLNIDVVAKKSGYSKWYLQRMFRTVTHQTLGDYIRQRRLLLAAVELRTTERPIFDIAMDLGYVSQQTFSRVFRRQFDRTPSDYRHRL
Experiment: Chemiluminescence-based SoxS-DNA binding assay
Parameters: made in house; species or system E. coli
Condition: read-out: % Inhibition (SoxS binding to DNA)

Lookup: Which inhibition at 50 µg/mL value is on record for CC(=O)Nc1ccc(-c2nc3ccc([N+](=O)[O-])cc3n2O)cc1 ?
Found: > 70%

Lookup: Please look up its inhibition at 50 µg/mL: CCCOn1c(-c2ccccc2)nc2ccc([N+](=O)[O-])cc21
Found: < 0%

Lookup: Entry Nc1cccc(-c2nc3ccc([N+](=O)[O-])cc3n2O)c1 : reported inhibition at 50 µg/mL = ?
Found: 30 to 69%

Lookup: Need inhibition at 50 µg/mL of CC(C)(C)c1ccc2nc(-c3ccccc3)n(O)c2c1 , thanks.
Found: < 0%

Lookup: Report inhibition at 50 µg/mL for CC(=O)c1ccc2nc(-c3ccccc3)n(O)c2c1 please.
Found: 30 to 69%

Lookup: Need inhibition at 50 µg/mL, item CN(C)c1ccc2nc(-c3ccccc3)n(O)c2c1
Found: 0 to 29%

----------
Consider the following compounds; for each one, report its pEC50.
Assayed System: LcrF (VirF) (Yersinia pestis, UniProt P28808)
Sequence (P28808 whole entry, looked up): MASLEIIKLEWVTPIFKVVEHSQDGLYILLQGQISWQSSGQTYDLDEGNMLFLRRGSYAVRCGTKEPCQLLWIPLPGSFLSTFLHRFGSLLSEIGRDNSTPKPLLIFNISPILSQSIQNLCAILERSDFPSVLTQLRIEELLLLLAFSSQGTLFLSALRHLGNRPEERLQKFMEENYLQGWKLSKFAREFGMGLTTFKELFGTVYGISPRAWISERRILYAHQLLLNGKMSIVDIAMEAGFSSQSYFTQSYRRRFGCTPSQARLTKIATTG
Experiment: biochemical
Format: binding, Y. pseudotuberculosis
Condition: EC50 for inhibition of LcrF(VirF)-DNA binding
pEC50: −log10 of the molar value.

Lookup: Request body: readout pEC50, system LcrF (VirF) (Yersinia pestis, UniProt P28808), query O=C(O)COn1c(-c2ccc(NC(=O)c3ccc(F)cc3)cc2)nc2ccc([N+](=O)[O-])cc21 . Return the value.
Found: < 4.60

Lookup: Please provide the recorded pEC50 for N#Cc1ccc2nc(-c3ccc(NC(=O)c4ccc(-n5ccnc5)cc4)cc3)n(O)c2c1 , tested on LcrF (VirF) (Yersinia pestis, UniProt P28808).
Found: 4.60 to 5.00

Lookup: Notebook entry, LcrF (VirF) (Yersinia pestis, UniProt P28808) assay: pEC50 of CCc1cc(-c2nc3ccc([N+](=O)[O-])cc3n2O)ccc1NC(=O)c1ccc(C(C)=O)cc1 = ?
Found: 4.60 to 5.00

Lookup: pEC50 / LcrF (VirF) (Yersinia pestis, UniProt P28808) / NC(=NO)c1ccc2nc(-c3ccc(NC(=O)c4ccc(F)cc4)cc3)n(O)c2c1
Found: < 4.60

----------
Assayed System: LcrF (VirF) (Yersinia pestis, UniProt P28808)
Experiment: biochemical
Format: binding, Y. pseudotuberculosis
Condition: EC50 for inhibition of LcrF(VirF)-DNA binding
Assay Endpoint: EC50

Lookup: Please give the measured EC50 for this compound: CC(=O)Nc1ccc(C(=O)Nc2ccc(-c3nc4ccc([N+](=O)[O-])cc4n3O)cc2)cc1 [AC]
Found: 10 to 25 µM

Lookup: EC50 lookup needed for N#Cc1ccc2nc(-c3ccc(NC(=O)c4ccc(F)cc4)cc3)n(O)c2c1 [CV] , thanks.
Found: > 25 µM

Lookup: Given the entry COc1ccccc1/C=C/C(=O)Nc1ccc(-c2nc3ccc([N+](=O)[O-])cc3n2O)cc1 [U] , report its measured EC50.
Found: 10 to 25 µM

Lookup: Bench note: what EC50 did O=C(Nc1ccc(-c2nc3ccc([N+](=O)[O-])cc3n2O)c(F)c1)c1ccc(F)cc1 [DS] show?
Found: 10 to 25 µM

Lookup: Reported EC50, compound O=C(/C=C/c1ccc(F)cc1)Nc1ccc(-c2nc3ccc([N+](=O)[O-])cc3n2O)cc1 [M] : ____
Found: < 10 µM

Lookup: So what's the measured EC50 for this one? Cc1ccccc1C(=O)Nc1ccc(-c2nc3ccc([N+](=O)[O-])cc3n2O)cc1 [P]
Found: > 25 µM

Lookup: # get_value(readout='EC50', item= O=C(/C=C/c1ccc(F)c(CP(=O)(O)O)c1)Nc1ccc(-c2nc3ccc([N+](=O)[O-])cc3n2O)cc1 [DX] )
Found: 10 to 25 µM

Lookup: Which value of EC50 has been reported for O=C(Nc1ccc(-c2nc3ccc([N+](=O)[O-])cc3n2O)cc1)c1ccccc1O [DN] in the records?
Found: 10 to 25 µM

Lookup: Data request, read-out EC50, for COc1ccc(/C=C/C(=O)Nc2ccc(-c3nc4ccc([N+](=O)[O-])cc4n3O)cc2)cc1 [T]
Found: < 10 µM

Lookup: Which EC50 value belongs to CCOc1cc2nc(-c3ccc(NC(=O)/C=C/c4ccc(F)cc4)cc3)n(O)c2cc1[N+](=O)[O-] [EV] ?
Found: 10 to 25 µM

Lookup: Give its EC50 value. Item: O=C(Nc1ccc(-c2nc3ncc([N+](=O)[O-])cc3n2O)cc1)c1ccc(F)cc1 [DI]
Found: 10 to 25 µM

Lookup: Fill in the blank: the reported EC50 of O=C(/C=C/c1ccc(F)cc1)Nc1ccc(-c2nc3ccc([N+](=O)[O-])cc3n2O)nc1 [DZ] is ____.
Found: 10 to 25 µM

Lookup: Looking for the measured EC50 of O=C(/C=C/c1ccc(F)c(F)c1)Nc1ccc(-c2nc3ccc([N+](=O)[O-])cc3n2O)cc1 [W] , can you help?
Found: 10 to 25 µM
